System: blood-dot area in right ear
ASSAY SUMMARY: re-absorption of citrated blood injected in the rabbit ear (blood-dot area)
Assay type: in vivo, New Zealand rabbits
ASSAY SETUP: 50 mg/kg pro die, oral; placebo 20.3
REPORTED METRIC: % reduction of blood-dot area after 4 days (%)
Write the answer as a number in %, unit excluded.

// worked examples, % reduction of blood-dot area after 4 days included
> print(dat)
   structure.smiles.string                tested.target  measured.number
1   Cc1cc(=O)oc2ccc(F)cc12  blood-dot area in right ear               65
2    O=c1oc2ccc(F)cc2cc1Br  blood-dot area in right ear               69
3         O=c1ccc2ccccc2o1  blood-dot area in right ear            67.31

Give the value of % reduction of blood-dot area after 4 days reported for the following: O=c1ccc2cc(F)ccc2o1
92
